Assay: Oral bioavailability in immature Sprague-Dawley rat at 0.5 mg/kg
Type: ADME, organism-based
Details: in vivo
OBSERVATION_TYPE: bioavailability (%)

Ask: Reported bioavailability, compound Cc1ccccc1N1CCN(c2ccc(C(=O)NCCCc3nn[nH]n3)cc2NC(=O)c2coc(C3CC3)n2)CC1 : ____
Result: 21

Ask: Suppose we examine the compound Cc1ccccc1N1CCN(c2ccc(C(=O)N[C@@H]3CCC[C@@H](O)[C@H]3O)cc2NC(=O)c2coc(C3CC3)n2)CC1 ; what bioavailability value has been reported?
Result: 23

* * *

Test: Clearance in immature Sprague-Dawley rat at 0.2 mg/kg, iv
Assay type: ADME, organism-based
Design: dose 0.2 mg/kg, route intravenous
Conditions: in vivo
OBSERVATION_TYPE: clearance (mL/min/kg)

[a] Cc1ccccc1N1CCN(c2ccc(C(=O)N[C@@H]3CCC[C@@H](O)[C@H]3O)cc2NC(=O)c2coc(C3CC3)n2)CC1
[b] Cc1ccccc1N1CCN(c2ccc(C(=O)NCCCc3nn[nH]n3)cc2NC(=O)c2coc(C3CC3)n2)CC1
Ask: Of the pair a and b , name the member with the lesser recorded clearance. Answer by stating the label of the chosen item.
Result: a
(a: 3.41 mL/min/kg, b: 13.2 mL/min/kg)

* * *

Assay: Clearance in human microsomes
Assay type: ADME
OBSERVATION_TYPE: microsomal CLint (µL/min/mg)

Solved cases below.
Ask: Consider the molecule Cc1ccccc1N1CCN(c2ccc(C(=O)NCCCc3nn[nH]n3)cc2NC(=O)c2coc(C3CC3)n2)CC1 and give its measured microsomal CLint.
Result: 20

Ask: I would be grateful if you could share the reported microsomal CLint for Cc1ccccc1N1CCN(c2ccc(C(=O)NCCCN3C(=O)CCC3=O)cc2NC(=O)c2ccco2)CC1 .
Result: 33

Ask: Given the molecule Cc1ccccc1N1CCN(c2ccc(C(=O)NCc3cccc(C(N)=O)c3)cc2NC(=O)c2ccco2)CC1 , what is its reported microsomal CLint?
Result: 54

Ask: Look at this molecule and give its reported microsomal CLint. Cc1ccccc1N1CCN(c2ccc(C(=O)NCCCN3CCCC3=O)cc2NC(=O)c2coc(C3CC3)n2)CC1
Result: 260

Ask: microsomal CLint for Cc1ccccc1N1CCN(c2ccc(C(=O)N[C@@H]3CCC[C@@H](O)[C@H]3O)cc2NC(=O)c2coc(C3CC3)n2)CC1 ?
Result: 72

[I] Cc1ccccc1N1CCN(c2ccc(C(=O)NCCCN3CCOC3=O)cc2NC(=O)c2ccco2)CC1
[II] Cc1ccccc1N1CCN(c2ccc(C(=O)NCCCN3CCCC3=O)cc2NC(=O)c2ccco2)CC1
Ask: Lab note: check whether I or II has the lower measured microsomal CLint. Could you answer with the label of the item you picked?
Result: I
(I: 59 µL/min/mg, II: 312 µL/min/mg)

* * *

Molecular target: Follicle-stimulating hormone receptor (Homo sapiens) (UniProt P23945)
Sequence (P23945 whole entry): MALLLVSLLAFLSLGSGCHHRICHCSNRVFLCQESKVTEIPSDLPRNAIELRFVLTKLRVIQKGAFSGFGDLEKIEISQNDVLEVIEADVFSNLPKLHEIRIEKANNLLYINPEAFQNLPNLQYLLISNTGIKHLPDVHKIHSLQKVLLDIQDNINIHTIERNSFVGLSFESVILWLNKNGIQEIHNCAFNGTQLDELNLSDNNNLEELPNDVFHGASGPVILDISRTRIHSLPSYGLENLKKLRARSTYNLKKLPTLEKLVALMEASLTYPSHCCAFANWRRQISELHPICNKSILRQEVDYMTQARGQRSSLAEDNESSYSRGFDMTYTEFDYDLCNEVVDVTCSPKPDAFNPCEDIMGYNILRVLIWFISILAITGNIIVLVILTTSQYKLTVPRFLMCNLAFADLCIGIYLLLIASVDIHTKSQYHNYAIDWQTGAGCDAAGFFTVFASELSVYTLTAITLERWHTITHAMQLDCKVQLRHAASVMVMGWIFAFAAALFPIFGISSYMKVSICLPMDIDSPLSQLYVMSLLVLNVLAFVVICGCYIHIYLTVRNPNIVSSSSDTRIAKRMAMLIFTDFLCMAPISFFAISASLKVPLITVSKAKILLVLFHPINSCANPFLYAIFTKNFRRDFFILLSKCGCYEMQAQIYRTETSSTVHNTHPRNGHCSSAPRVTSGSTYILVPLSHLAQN
Assay: Positive allosteric modulation of human FSH receptor expressed in CHO cells assessed as effect on FSH-induced cAMP accumulation at 12 uM after 1 hr by HTRF assay relative to FSH
Type: functional, cell-based
OBSERVATION_TYPE: Activity (%)

Use these answered entries as a reference point.
Ask: Reported Activity for Follicle-stimulating hormone receptor (Homo sapiens) (UniProt P23945), given Cc1ccccc1N1CCN(c2ccc(C(=O)NCCCN3CCCC3=O)cc2NC(=O)c2cccnc2)CC1 ?
Result: 37

Ask: Under Follicle-stimulating hormone receptor (Homo sapiens) (UniProt P23945): Activity value of Cc1ccccc1N1CCN(c2ccc(C(=O)N3CCC(N4CCCC4=O)CC3)cc2NC(=O)c2ccco2)CC1 ?
Result: 40

[1] Cc1ccccc1N1CCN(c2ccc(C(=O)NCCCN3CCCC3=O)cc2NC(=O)c2ccncc2)CC1
[2] Cc1ccccc1N1CCN(c2ccc(C(=O)NCCCN3CCCC3=O)cc2NS(=O)(=O)c2ccco2)CC1
[3] Cc1ccccc1N1CCN(c2ccc(CNCCCN3CCCC3=O)cc2NC(=O)c2coc(C3CC3)n2)CC1
Ask: Sort entries by Activity from minimum to maximum value. Answer by naming the labels in the order asked.
Result: 3, 2, 1
